polymerase ribozyme fitness (log ratio) values for the variants below.
B1: TPR 5TU (parent)
chain: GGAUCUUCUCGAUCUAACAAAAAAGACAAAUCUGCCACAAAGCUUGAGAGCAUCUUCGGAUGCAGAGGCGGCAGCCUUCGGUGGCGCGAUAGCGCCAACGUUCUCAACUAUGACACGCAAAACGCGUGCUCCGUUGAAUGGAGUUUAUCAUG

variants of: B1; test: polymerase ribozyme fitness, log enrichment relative to wild type (log ratio); higher = more active; in vitro selection for triplet polymerase activity
Fewer inactive variants are shown than the library holds.
# respond with the number and nothing more

// solved cases for polymerase ribozyme fitness (log ratio) follow
[
  {
    "variant descriptor": "C75G C96A",
    "polymerase ribozyme fitness (log ratio)": -3.52
  },
  {
    "variant descriptor": "A16U C18A A21C A73U G92U",
    "polymerase ribozyme fitness (log ratio)": -2.75
  },
  {
    "variant descriptor": "A52G G83C C93U",
    "polymerase ribozyme fitness (log ratio)": -3.66
  },
  {
    "variant descriptor": "U56A C57A C85G",
    "polymerase ribozyme fitness (log ratio)": -0.79
  }
]

Qu. Reported polymerase ribozyme fitness (log ratio) for G11C C35U : what is it?
Ans. -2.11
